- Tested on: MS2 coat protein
- method: apparent Kd, MS2 coat protein; higher = weaker binding; RNA-MaP array; FMN 200 µM where present
- settings: designed as: ON switch for flavin mononucleotide; no ligand
measured_property: apparent Kd (nM)

> print(dat)
                                biosequence  measured.property  experimental.result
1  UGGUACUAGAGAGGAUAUGGGAAGAUACAUGAGGAUCACCCAUGUUUAAGAAUGCCGAGAGGCAACUAGAAGGCCCUAGUACCU        apparent Kd                  490
2  GGAUGAGCGAUAGGAUAUGCUGGGAUUGAAUGGGUAGAAGGAUUUCUAGUGGGAAAGACAUGAGGAUCACCCAUGUCGCGGACC        apparent Kd                 30.3
3  GGGCUGGUAACAGGAUAUCGUGCCUGGCCGGAUUACAUGAGGAUCACCCAUGUCGUUGGAACCAACGAGAAGGGUUGCCUCCCA        apparent Kd                  371
4  GAGUGGAAGGCCGCUACAUGAGGAUCACCCAUGUGCUAAGCACAGGAUAUCGCGUGGGCCCGACGCGAGAAGGGUGACGGCCUG        apparent Kd                  582

---

Below, each entry is listed alongside its reported apparent Kd.
- Tested on: MS2 coat protein
- method: apparent Kd, MS2 coat protein; higher = weaker binding; RNA-MaP array; theophylline 2 mM where present
- settings: ligand present: theophylline; designed as: ON switch for theophylline
measured_property: apparent Kd (nM)

> print(dat)
                                biosequence     target.system  experimental.result
1  GGAAGCAGGACUGAUACCAGUCCAGCGAAUCAUACGACGCAACAUGAGGAUCACCCAUGUGACCCUUGGCAGCAGACUGCUACCG  MS2 coat protein                 13.7
2  AACAUGAGGAUCACCCAUGUAUUGGGUGAUACCAGCCUGAAUAAUGGCCCUUGGCAGCACCGCGCUAACUUUAUGUCUGCGAAAC  MS2 coat protein                  138
3  AUCGUACCUGAUGAUACCAGCAAUUGCUCGUAACAUGAGGAUCACCCAUGUGACCAGUGAUGCCCUUGGCAGCAUGAUCGGUGCA  MS2 coat protein                 12.4
4  AUGUCGUUGAAUAUAGCGGCUUGGAGUGAUACCAGCAUGAUCCAAUGCCCUUGGCAGCAUAACAUGAGGAUCACCCAUGUUCCAG  MS2 coat protein                 74.6
5  ACGACGCAUAGUGAUACCAGCACAACAUGAGGAUCACCCAUGUCACAUAUGUUGUAAUAAUGCCCUUGGCAGCACUAUGCGUCAG  MS2 coat protein                 87.3
6  ACAAGUCCUCAUGAUACCAGCGAUGAGACAAAGUCUCAACAUGAGGAUCACCCAUGUACUCGCCCUUGGCAGCAUACGGUUUUUG  MS2 coat protein                 43.6
7  AAUAACAUGAGGAUCACCCAUGUAAAAGAUACCAGAGUGAUGAUCCUCCCUUGGCAGCUUAAAACGCUAUUGGAAACAAUAGCGA  MS2 coat protein                  168
